- targetEntity: T1, mouse PCSK9 (mouse, UniProt Q80W65 35-694, limits assumed)
- T1 construct: also called mPCSK9; msPCK9
- T1 sequence (Q80W65 35-694 limits assumed): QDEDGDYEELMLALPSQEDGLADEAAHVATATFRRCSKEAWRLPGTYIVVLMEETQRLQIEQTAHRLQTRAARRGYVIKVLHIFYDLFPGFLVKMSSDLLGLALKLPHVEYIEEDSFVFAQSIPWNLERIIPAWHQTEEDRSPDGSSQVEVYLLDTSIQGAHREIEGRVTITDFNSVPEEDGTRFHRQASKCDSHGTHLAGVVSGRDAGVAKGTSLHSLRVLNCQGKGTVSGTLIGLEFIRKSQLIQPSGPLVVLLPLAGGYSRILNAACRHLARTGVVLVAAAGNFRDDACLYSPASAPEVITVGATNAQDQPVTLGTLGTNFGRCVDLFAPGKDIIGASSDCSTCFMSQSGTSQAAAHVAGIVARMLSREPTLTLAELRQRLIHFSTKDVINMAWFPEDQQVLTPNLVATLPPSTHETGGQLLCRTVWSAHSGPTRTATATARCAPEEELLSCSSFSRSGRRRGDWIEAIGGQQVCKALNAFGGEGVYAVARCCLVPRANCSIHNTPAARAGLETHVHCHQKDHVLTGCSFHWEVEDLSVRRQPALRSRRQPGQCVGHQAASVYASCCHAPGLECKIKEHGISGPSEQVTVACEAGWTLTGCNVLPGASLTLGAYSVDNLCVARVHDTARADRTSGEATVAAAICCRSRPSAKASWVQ
- assayOverview: SPR Biacore 3000, captured IgG, mPCSK9 injected, pH 5.5
property: pKd
// pKd is dimensionless: -log10 of concentration (M)

Requested read-out: pKd. Entry: 5L1721H23_6L3H3 (antibody, V domains shown, Tested as full-length IgG; also called heavy UC-H5H23-6H3, light UC-H5L1721-6L3) VH: QVQLVQSGAEVKKPGASVKVSCKASGYTFTSYYMHWVRQAPGQGLEWMGEIHPSGGRTNYNEKFKSRVTMTRDTSTSTVYMELSSLRSEDTAVYYCARERPLYASDLWGQGTTVTVSS VL: DIQMTQSPSSLSASVGDRVTITCKASQDVHTAVAWYQQKPGKAPKLLIYHASYRYTGVPSRFSGSGSGTDFTFTISSLQPEDIATYYCQQRYSLWRTFGQGTKLEIK
6.93
